B1: VH:VL chains; a variant is named by its letters at X, in order (parent)
chain 1: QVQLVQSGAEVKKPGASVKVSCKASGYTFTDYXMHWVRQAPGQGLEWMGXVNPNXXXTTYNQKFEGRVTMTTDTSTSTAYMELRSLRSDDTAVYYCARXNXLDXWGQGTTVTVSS
chain 2: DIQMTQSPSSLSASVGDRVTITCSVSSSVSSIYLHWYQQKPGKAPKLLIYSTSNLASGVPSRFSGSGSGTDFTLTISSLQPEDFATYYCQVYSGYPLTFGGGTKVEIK

# Variants of: B1
# assay.procedure: yeast display scFab, FACS + sequencing
# conditions.used: with MET
This is one part of the list. No count for the full screen is at hand.
metric: antigen binding call

variant: FAEGASSS
antigen binding call: no binding
//
variant: FRTRDSLD
antigen binding call: binds
//
variant: DREGGVSD
antigen binding call: no binding
//
variant: FRGRGYVV
antigen binding call: binds
//
variant: VTAGDDVY
antigen binding call: no binding
//
variant: SGRGNALD
antigen binding call: no binding
//
variant: VAGGDDAV
antigen binding call: no binding
//
variant: YTTRGDGV
antigen binding call: no binding
//
variant: YRGRSSWS
antigen binding call: binds
//
variant: YKRGSAAA
antigen binding call: binds

Give antigen binding call for each of the items listed below.
1. FKTKNYAD
2. AGKGGFAY

Response:
1: no binding; 2: no binding

Give antigen binding call for each of the items listed below.
1. YRKKSVGA
2. FRGRGYWV
3. YRRGGVGA
4. YGTRSYGV
5. DKTKGDWV

Response:
1: no binding; 2: binds; 3: binds; 4: no binding; 5: no binding
